Values from the supplement of paper PMC10724198

Tested on: Saccharomyces cerevisiae;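 note: PSI is a weighted mean of sequencing reads over stability bins, variants kept only with over 10 reads, mCherry proximal and sfGFP distal, peptide attached via GGGS linker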
Assay details: protein stability index of tFT-peptide fusion (C-terminal peptide) (PSI (0-1 scale)); higher = more stable (slower turnover)
Assay conditions: genetic background: wild type; temperature: 37 C
So I've got a bunch of sequences here, and I need their protein stability index values.

Consider the reported protein stability index for these sequences:
# Sequence chain, protein stability index
measured = [
    ("TVRVWPRNLWFS", 0.235),
    ("HLAQYSSSLHLM", 0.617),
    ("VFVMRDGFLRKV", 0.451),
    ("FSMRWTFRYWVN", 0.0931),
    ("LLFTFSLSFFFR", 0.45),
]

The following sequences each have a reported value; give each one's protein stability index.
1. GGGWGVFVVLWW
2. YCILGSYRLCVG

1. 0.355
2. 0.427
